Answer each item with its documented IC50.
- targetUnderTest: Nuclear receptor subfamily 0 group B member 1 (Homo sapiens, UniProt P51843)
- Sequence (P51843 whole entry): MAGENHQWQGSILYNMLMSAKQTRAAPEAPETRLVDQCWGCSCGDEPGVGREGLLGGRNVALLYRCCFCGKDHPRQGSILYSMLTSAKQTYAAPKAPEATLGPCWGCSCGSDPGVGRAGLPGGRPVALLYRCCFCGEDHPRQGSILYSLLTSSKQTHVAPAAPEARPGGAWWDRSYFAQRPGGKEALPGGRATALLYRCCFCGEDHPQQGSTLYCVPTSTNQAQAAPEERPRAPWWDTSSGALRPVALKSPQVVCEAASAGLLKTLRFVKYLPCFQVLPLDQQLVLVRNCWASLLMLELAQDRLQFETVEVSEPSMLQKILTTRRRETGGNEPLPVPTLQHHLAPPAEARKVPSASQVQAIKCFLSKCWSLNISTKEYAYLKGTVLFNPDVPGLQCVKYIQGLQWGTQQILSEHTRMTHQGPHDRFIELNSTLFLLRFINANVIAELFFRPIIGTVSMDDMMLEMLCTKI
- testDetails: Luminescence-based cell-based high throughput dose response assay for inhibitors of the orphan nuclear receptor subfamily 0, group B, member 1 (DAX1; NR0B1). [Related pubchem assays (depositor defined):AID504766, AID504790]
- Format: functional
The source made the active and inactive calls. No rule for the calls is given here.

# molecule, IC50
rows = [
    ("c1cnc(SCCOc2ccc3c(c2)CCC3)nc1", "> 67.6 µM (inactive)"),
    ("CC(=O)c1csc(Nc2ccccc2Cl)n1", "> 67.6 µM (inactive)"),
    ("Cc1cc(C)c2c(N)c(C(=O)N/N=C/c3ccccc3)sc2n1", "> 67.5 µM (inactive)"),
    ("O=C(O)c1ccc(/C=N/Nc2nc3ccccc3[nH]2)cc1", "> 67.6 µM (inactive)"),
]

For the next question, use this molecule.
## Task // IC50 lookup, key: CC(=O)NC(Cc1c[nH]c2ccccc12)C(=O)O (stereo not given)
## Result > 67.6 µM (inactive)
